B1: Twister Ribozyme (parent)
chain: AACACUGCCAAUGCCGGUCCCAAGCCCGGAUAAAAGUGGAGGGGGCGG

Variants of: B1
Experiment: self-cleavage, relative activity (ratio to wild type); higher = more cleavage; co-transcriptional
experimental endpoint: self-cleavage
Please state the value as a number alone, without comment.

> print(dat)
   sequence.change  experimental.endpoint  value.observed
1        U12A U37C          self-cleavage           0.727
2        C25G G28C          self-cleavage          0.0925
3         A2U A34G          self-cleavage           0.292
4         U6G G43A          self-cleavage           0.144
5        A23C U31C          self-cleavage           0.247

## Input Name the recorded self-cleavage for A11U G13C .
## Output 0.592

## Input Name the recorded self-cleavage for G17A A34C .
## Output 0.0806

## Input Name the recorded self-cleavage for A11U C21A .
## Output 0.114

## Input Name the recorded self-cleavage for U6A A30C .
## Output 0.428

## Input Name the recorded self-cleavage for A1G U37C .
## Output 0.192

## Input Name the recorded self-cleavage for C25G G44A .
## Output 0.514
